- measurementProtocol: qHTS assay to identify small molecule agonists of the RXR signaling pathway - cell viability counter screen (AID 1159529); further: nearly all actives have a fitted effect of over 50% in size
- particulars: RXR-alpha-bla HEK293T viability, CellTiter-Glo, 16 h; series mostly up to 76.8 µM
Results filed as inconclusive are left out. Active and inactive are the calls of the source. The call rests on the fitted dose curve; in most records, active means well fitted cell-killing curve with a large enough effect in the repeat runs; inconclusive means weak or mixed curves, or effect the other way; inactive means no such curve, though single readings can be large or run the other way.
Outcome codes: active, inactive

| compound | categoryLabel |
| --- | --- |
| CN1CCN(CCC(=O)N2c3ccccc3Sc3ccc(C(F)(F)F)cc32)CC1 | active |
| NC(=O)N1C(=O)C(C(=O)c2cc(Cl)cs2)c2cc(F)c(Cl)cc21 (stereo unspecified) | active |
| On1ccccc1=S | active |
| Cc1cc(O)c2ccccc2c1O | active |
| O=[N+]([O-])c1cc(Cl)c(Cl)c(Cl)c1Cl | inactive |
| Cc1cc(N)c(S(=O)(=O)O)cc1Cl | inactive |
| Fc1ccc([C@@H]2CCNC[C@H]2COc2ccc3c(c2)OCO3)cc1 | inactive |
| CCCCCCCCCCCCCCCC(=O)OC[C@H](O)[C@H]1OC(=O)C(O)=C1O | active |
| CC(C)OC(=O)c1cc2c(OCC(O)CNC(C)(C)C)cccc2[nH]1 (stereo unspecified) | inactive |
| CC(C)(C)NC(=O)[C@@H]1C[C@@H]2CCCC[C@@H]2CN1C[C@@H](O)[C@H](Cc1ccccc1)NC(=O)[C@H](CC(N)=O)NC(=O)c1ccc2ccccc2n1 | active |
| Oc1c(Cl)cc(Cl)c2cccnc12 | active |
